- ASSAY INFO: Cell cycle arrest in human SH-SY5Y cells assessed as accumulation at G2/M phase at 3 times IC50 after 16 hrs by flow cytometry (reference value: 18.5 %)
- Format: functional, cell-based
Would you kindly list Activity for each of these compounds?
Numbers only, in %.

Completed entries (count: 2):
{"columns": ["SUBSTANCE SMILES", "Activity / %"],
 "data": [
  ["COc1ccc(/C=C\\c2cc(OC)c(OC)c(OC)c2)cc1O", 35.4],
  ["COc1ccc2c(c1O)NC(=O)CN=C2c1cc(OC)c(OC)c(OC)c1", 34.4]
]}

Below is a list of compounds. For each, state its recorded Activity.
1. COc1ccc2c(c1)NC(=O)CN=C2c1cc(OC)c(OC)c(OC)c1
2. COc1cc(C2=NCC(=O)Nc3cc4c(cc32)OCO4)cc(OC)c1OC

Return:
1. 35
2. 37.7
